Test system: Glutathione S-Transferase
Test: Glutathione S-transferase (GST) activity in tissue cytosol of treated mice, CDNB substrate
Type: in vivo, Female A/J mice
Details: colon; dose 0.02 mmol/Kg body weight, gavage
Ratio Test/con (GST) values by entry
Endpoint Label: Ratio Test/con (GST)

| Molecule | Assay Target | Endpoint Label | Recorded Value |
| --- | --- | --- | --- |
| [Se]=C=NCc1ccc(CN=C=[Se])s1 | Glutathione S-Transferase | Ratio Test/con (GST) | 1.12 |
| N#C[Se]Cc1ccc(C[Se]C#N)s1 [(2) TDMSC, thienyl-2,5-di-methylene selenocyanate] | Glutathione S-Transferase | Ratio Test/con (GST) | 1.00 |
| [Se]=C=NCc1ccc(CN=C=[Se])[se]1 | Glutathione S-Transferase | Ratio Test/con (GST) | 1.23 |
| N#C[Se]Cc1ccc(C[Se]C#N)[se]1 | Glutathione S-Transferase | Ratio Test/con (GST) | 1.13 |
| N#C[Se]Cc1ccc[se]1 [(3) SMSC, 2-selenophenyl methylene selenocynate] | Glutathione S-Transferase | Ratio Test/con (GST) | 1.08 |
| N#C[Se]Cc1ccc(C[Se]C#N)cc1 [p-XSC, 1,4-phenylenebis(methylene)selenocyanate, reference compound] | Glutathione S-Transferase | Ratio Test/con (GST) | 1.10 |
